- system-under-test: RORγ ligand binding domain (LBD) (Homo sapiens, UniProt P51449)
- Construct: made in house; host or cells: E. coli BL-21 (BL3), vector pDEST15
- Sequence (P51449 269-508 limits assumed): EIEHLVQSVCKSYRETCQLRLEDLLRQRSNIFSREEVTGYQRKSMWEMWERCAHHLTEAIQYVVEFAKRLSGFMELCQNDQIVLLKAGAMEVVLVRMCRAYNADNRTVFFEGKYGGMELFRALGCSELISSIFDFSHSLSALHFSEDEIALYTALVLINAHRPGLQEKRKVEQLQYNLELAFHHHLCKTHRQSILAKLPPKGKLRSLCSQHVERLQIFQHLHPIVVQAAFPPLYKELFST
- assay-overview: TR-FRET Activity Assay (ligand sensing, RORγ-LBD / coactivator peptide interaction, LANCE)
- Assay type: biochemical
pIC50: −log10 of the molar value.
quantity-measured: pIC50

| compound | quantity-measured | measured-value |
| --- | --- | --- |
| Cc1c(C(=O)NC2COC2)cc(-c2cc(OCC(C)C)nc(C(C)(C)C)c2)n1CC1CCCCC1 [1/121] | pIC50 | 6.90 |
| Cc1c(C(=O)NCC2(C)COC2)cc(-c2ccc(S(=O)(=O)NC(C)(C)C)c(C(C)(C)C)c2)n1CC1CCCCC1 [1/127] | pIC50 | 6.30 |
| COCC(=O)NC(C)(C)CNC(=O)c1cc(-c2cc(C(C)(C)C)cc(C3(C)CC3)c2)n(CC2CCCCC2)c1C [17/122] | pIC50 | 6.40 |
| Cc1c(C(=O)NC2COC2)cc(-c2cc(C(=O)NC(C)(C)C)cc(C(F)(F)F)c2)n1CC1CCCCC1 [Example 15] | pIC50 | 6.30 |
